molecular target: MAGI1_2, Q96QZ7; experiment: holdup assay; parameters: key: below the threshold = too weak to quantify, mostly under pKd 3.1 to 4; settings: plain residues with an end cap or a label only (N-terminal biotin on a linker: ado-ado)
Sequence (Q96QZ7 456-580): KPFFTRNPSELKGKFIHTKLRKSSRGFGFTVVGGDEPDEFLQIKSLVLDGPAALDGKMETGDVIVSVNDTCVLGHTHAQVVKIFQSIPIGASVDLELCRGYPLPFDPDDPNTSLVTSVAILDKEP
test_readout: pKd

Here are 5 binders together with their reported answers.
binder	pKd
PLPPEEESWV [GAS2L2, Q8NHY3]	below the threshold
QLKSGRDSTV [TMEM178A, Q8NBL3]	3.49
SAGADSETHC [SLCO1B1, Q9Y6L6]	below the threshold
IQISELETNV [SLC1A7, O00341]	below the threshold
SGDGKTSVWI [GJC1, P36383]	below the threshold

Lookup: Item under review: QLGSPTADLA [SIPA1, Q96FS4] . Reported pKd?
Found: below the threshold

Lookup: Item under review: RDYTQSSSSL [GRM5, P41594] . Reported pKd?
Found: below the threshold

Lookup: Item under review: WAKEKQHTRL [SLC17A1, Q14916] . Reported pKd?
Found: 4.7

Lookup: Item under review: LLQEEWETVM [PTH1R, Q03431] . Reported pKd?
Found: below the threshold

Lookup: Item under review: EFKQTSSFLV [JAM1, Q9Y624] . Reported pKd?
Found: below the threshold
